Data origin, for the record: patent US20250197374A1

Quick list: 293T-LentiX WEE1-ePL Degradation 4 hr YMin (%) per entry.
- Target: WEE1 (Homo sapiens, UniProt P30291+Q96SW2)
- Construct: C-terminal ePL-tagged (DiscoverX, Fremont, CA) full-length WEE1 expression construct; expressed in transfected cells; host or cells: LentiX-HEK293T (Invitrogen), lentivirally transduced; the cells also over-express GSPT1-GN
- Sequence (P30291 whole entry): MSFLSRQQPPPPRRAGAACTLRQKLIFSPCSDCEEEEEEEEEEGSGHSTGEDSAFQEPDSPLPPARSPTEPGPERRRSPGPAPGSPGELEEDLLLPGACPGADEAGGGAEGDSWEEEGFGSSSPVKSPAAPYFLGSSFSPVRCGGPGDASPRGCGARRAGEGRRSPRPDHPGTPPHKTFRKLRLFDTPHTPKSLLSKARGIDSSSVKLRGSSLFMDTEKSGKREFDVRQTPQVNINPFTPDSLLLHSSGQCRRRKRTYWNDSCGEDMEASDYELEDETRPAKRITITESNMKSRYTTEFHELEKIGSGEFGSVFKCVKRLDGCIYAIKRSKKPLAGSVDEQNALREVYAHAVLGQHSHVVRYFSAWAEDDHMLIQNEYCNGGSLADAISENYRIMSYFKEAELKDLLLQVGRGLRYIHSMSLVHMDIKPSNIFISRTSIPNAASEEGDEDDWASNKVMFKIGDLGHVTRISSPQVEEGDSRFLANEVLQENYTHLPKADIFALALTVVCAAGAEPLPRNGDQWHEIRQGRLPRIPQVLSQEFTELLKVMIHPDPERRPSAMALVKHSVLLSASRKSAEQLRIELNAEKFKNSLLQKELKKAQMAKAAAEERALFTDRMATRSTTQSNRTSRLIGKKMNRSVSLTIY
- Sequence (Q96SW2 whole entry): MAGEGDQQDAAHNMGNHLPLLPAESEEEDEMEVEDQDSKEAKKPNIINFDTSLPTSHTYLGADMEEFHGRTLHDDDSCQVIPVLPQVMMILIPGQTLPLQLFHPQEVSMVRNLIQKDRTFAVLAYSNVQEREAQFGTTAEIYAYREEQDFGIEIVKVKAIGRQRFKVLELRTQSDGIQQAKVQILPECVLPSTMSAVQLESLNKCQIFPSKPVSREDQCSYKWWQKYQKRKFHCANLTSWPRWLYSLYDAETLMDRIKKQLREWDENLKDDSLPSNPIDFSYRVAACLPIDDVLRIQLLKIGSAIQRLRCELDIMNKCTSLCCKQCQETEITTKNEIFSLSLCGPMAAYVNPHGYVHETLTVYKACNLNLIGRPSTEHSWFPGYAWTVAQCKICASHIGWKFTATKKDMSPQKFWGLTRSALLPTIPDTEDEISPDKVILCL
- Sequence (Q16531 whole entry partner): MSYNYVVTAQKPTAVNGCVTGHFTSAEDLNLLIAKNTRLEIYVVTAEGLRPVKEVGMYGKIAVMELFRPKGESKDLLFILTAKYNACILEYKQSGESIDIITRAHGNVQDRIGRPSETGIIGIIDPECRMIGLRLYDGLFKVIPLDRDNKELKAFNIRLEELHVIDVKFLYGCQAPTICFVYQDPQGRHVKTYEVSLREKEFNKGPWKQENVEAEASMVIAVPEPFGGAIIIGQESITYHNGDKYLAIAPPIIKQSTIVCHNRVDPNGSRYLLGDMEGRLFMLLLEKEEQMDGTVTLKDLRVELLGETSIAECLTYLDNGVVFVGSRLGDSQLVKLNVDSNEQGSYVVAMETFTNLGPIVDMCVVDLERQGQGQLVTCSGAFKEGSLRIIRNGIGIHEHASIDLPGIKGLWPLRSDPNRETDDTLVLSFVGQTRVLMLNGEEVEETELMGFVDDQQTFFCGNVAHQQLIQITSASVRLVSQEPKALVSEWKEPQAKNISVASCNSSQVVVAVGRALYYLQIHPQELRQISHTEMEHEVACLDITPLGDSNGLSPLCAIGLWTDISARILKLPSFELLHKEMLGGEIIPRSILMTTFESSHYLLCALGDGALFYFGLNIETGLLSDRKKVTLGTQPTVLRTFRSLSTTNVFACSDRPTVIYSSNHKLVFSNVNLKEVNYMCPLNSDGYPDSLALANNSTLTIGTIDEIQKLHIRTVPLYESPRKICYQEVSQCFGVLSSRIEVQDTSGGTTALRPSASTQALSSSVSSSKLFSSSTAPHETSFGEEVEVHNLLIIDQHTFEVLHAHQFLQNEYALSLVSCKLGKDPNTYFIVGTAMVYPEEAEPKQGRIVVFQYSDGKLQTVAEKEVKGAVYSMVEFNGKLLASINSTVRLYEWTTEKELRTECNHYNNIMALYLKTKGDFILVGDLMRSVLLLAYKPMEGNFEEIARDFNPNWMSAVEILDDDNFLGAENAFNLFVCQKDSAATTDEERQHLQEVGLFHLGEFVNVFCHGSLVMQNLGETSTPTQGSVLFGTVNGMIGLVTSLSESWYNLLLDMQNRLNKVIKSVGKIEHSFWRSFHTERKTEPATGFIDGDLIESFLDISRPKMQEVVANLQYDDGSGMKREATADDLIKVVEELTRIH
- Assay protocol: WEE1-ePL degradation assay (293T-LentiX, InCELL Hunter luminescence, 4 hr)
- Type: cell-based
- Study conditions: lower limit of fit, % of DMSO control signal remaining; 4 hr
Your answer should be a plain number; it is taken to be in %.

Examples from the recorded data:
1) COC[C@@H]1CN(Cc2cc(F)c3c(ccn3C(=O)C3CCOCC3)c2)C[C@H]1Oc1ccc2c(c1)CN([C@H]1CCC(=O)NC1=O)C2=O [Example 24] ... 37.7
2) COC[C@@H]1CN(Cc2cc(F)c3nc(N4CCC(O)CC4)ncc3c2)C[C@H]1Oc1ccc2c(c1)CN([C@H]1CCC(=O)NC1=O)C2=O [Example 63] ... 29.2

Query string: Which 293T-LentiX WEE1-ePL Degradation 4 hr YMin (%) value belongs to CN1CC[C@]2(C[C@H](c3ccc4cc(CN5CC[C@H](Oc6ccc7c(c6)CN([C@H]6CCC(=O)NC6=O)C7=O)C5)ccc4n3)CO2)C1 (relative stereo) [Example 3] ?
Result string: 28.1
